Each record here notes measured shrunken log2 fold change.
Test system: Escherichia coli TOP10
Assay: shrunken log2 fold change of peptide-encoding DNA abundance (4.5 h post-induction vs induction); higher = less antimicrobial activity (less host growth inhibition)
Conditions: time post-induction: 4.5 h; library: site-saturation at positions 5, 18, 19, 20
metric: shrunken log2 fold change

residues=RRIRIRPPRLPRPRPRPIDFPRP experimentalsystem="Escherichia coli TOP10" val=-0.0103
residues=RRIRERPPRLPRPRPRPMWHPRP experimentalsystem="Escherichia coli TOP10" val=0.0749
residues=RRIRLRPPRLPRPRPRPTVHPRP experimentalsystem="Escherichia coli TOP10" val=-0.131

* * *

System: Escherichia coli TOP10;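 further: peptides expressed intracellularly from a pBAD plasmid library in pooled LB shake-flask culture, induced with 0.3% L-arabinose, DNA abundance read by NGS, three biological replicates, DESeq2 with apeglm shrinkage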
Assay: shrunken log2 fold change of peptide-encoding DNA abundance (4.5 h post-induction vs induction); higher = less antimicrobial activity (less host growth inhibition)
Conditions: time post-induction: 4.5 h; library: site-saturation at positions 5, 18, 19, 20
metric: shrunken log2 fold change

residues=RRIRRRPPRLPRPRPRPYSLPRP metric="shrunken log2 fold change" val=-0.0861
residues=RRIRPRPPRLPRPRPRPSDNPRP metric="shrunken log2 fold change" val=-0.449
residues=RRIRDRPPRLPRPRPRPGVYPRP metric="shrunken log2 fold change" val=0.0379
residues=RRIRMRPPRLPRPRPRPIMTPRP metric="shrunken log2 fold change" val=-0.104
residues=RRIRNRPPRLPRPRPRPFHCPRP metric="shrunken log2 fold change" val=-0.536
residues=RRIRERPPRLPRPRPRPCARPRP metric="shrunken log2 fold change" val=0.0326
residues=RRIRPRPPRLPRPRPRPGYYPRP metric="shrunken log2 fold change" val=-0.45
residues=RRIRPRPPRLPRPRPRPVTSPRP metric="shrunken log2 fold change" val=0.0344
residues=RRIRRRPPRLPRPRPRPQGQPRP metric="shrunken log2 fold change" val=-0.0135
residues=RRIRPRPPRLPRPRPRPFHTPRP metric="shrunken log2 fold change" val=-0.569
residues=RRIRKRPPRLPRPRPRPDYQPRP metric="shrunken log2 fold change" val=-0.0353
residues=RRIRLRPPRLPRPRPRPLIGPRP metric="shrunken log2 fold change" val=0.0224
residues=RRIRWRPPRLPRPRPRPNDCPRP metric="shrunken log2 fold change" val=-0.0115
residues=RRIRHRPPRLPRPRPRPAMWPRP metric="shrunken log2 fold change" val=0.00652
residues=RRIRHRPPRLPRPRPRPGKTPRP metric="shrunken log2 fold change" val=-0.031
residues=RRIRLRPPRLPRPRPRPNYYPRP metric="shrunken log2 fold change" val=-0.773
residues=RRIRRRPPRLPRPRPRPQMCPRP metric="shrunken log2 fold change" val=0.0865
residues=RRIRNRPPRLPRPRPRPCDFPRP metric="shrunken log2 fold change" val=-0.529
residues=RRIRPRPPRLPRPRPRPPFRPRP metric="shrunken log2 fold change" val=0.529
residues=RRIRSRPPRLPRPRPRPFNTPRP metric="shrunken log2 fold change" val=-0.257
residues=RRIRERPPRLPRPRPRPFPAPRP metric="shrunken log2 fold change" val=-0.0357
residues=RRIRNRPPRLPRPRPRPLMFPRP metric="shrunken log2 fold change" val=-0.947
